- Test system: PC-3
Response field label takes Condition met when GI50 is strictly below 3 µM and Condition not met in all other cases.

>>> assigned_label("CC(=O)c1cc([N+](=O)[O-])c(Sc2cccc(Cl)c2Cl)s1 [Example P5091]")
"Condition met"
>>> assigned_label("CS(=O)(=O)c1cc([N+](=O)[O-])c(Sc2c(Cl)cncc2Cl)s1 [Example 22]")
"Condition not met"
>>> assigned_label("CC(=O)c1cc([N+](=O)[O-])c(Sc2c(Cl)cncc2Cl)s1 [Example 17]")
"Condition met"

Criterion: GI50 strictly below 3 µM. Is it met by CC(=O)c1cc([N+](=O)[O-])c(Sc2ccc(F)cc2F)s1 [Example 3] ?
Condition not met

Criterion: GI50 strictly below 3 µM. Is it met by CS(=O)(=O)c1cc([N+](=O)[O-])c(Sc2ccc(Cl)cc2Cl)s1 [Example 23] ?
Condition not met

###

- Subject of test: USP7 (Homo sapiens, UniProt Q93009)
- Construct: full length human USP7 protein
- Sequence (Q93009 whole entry): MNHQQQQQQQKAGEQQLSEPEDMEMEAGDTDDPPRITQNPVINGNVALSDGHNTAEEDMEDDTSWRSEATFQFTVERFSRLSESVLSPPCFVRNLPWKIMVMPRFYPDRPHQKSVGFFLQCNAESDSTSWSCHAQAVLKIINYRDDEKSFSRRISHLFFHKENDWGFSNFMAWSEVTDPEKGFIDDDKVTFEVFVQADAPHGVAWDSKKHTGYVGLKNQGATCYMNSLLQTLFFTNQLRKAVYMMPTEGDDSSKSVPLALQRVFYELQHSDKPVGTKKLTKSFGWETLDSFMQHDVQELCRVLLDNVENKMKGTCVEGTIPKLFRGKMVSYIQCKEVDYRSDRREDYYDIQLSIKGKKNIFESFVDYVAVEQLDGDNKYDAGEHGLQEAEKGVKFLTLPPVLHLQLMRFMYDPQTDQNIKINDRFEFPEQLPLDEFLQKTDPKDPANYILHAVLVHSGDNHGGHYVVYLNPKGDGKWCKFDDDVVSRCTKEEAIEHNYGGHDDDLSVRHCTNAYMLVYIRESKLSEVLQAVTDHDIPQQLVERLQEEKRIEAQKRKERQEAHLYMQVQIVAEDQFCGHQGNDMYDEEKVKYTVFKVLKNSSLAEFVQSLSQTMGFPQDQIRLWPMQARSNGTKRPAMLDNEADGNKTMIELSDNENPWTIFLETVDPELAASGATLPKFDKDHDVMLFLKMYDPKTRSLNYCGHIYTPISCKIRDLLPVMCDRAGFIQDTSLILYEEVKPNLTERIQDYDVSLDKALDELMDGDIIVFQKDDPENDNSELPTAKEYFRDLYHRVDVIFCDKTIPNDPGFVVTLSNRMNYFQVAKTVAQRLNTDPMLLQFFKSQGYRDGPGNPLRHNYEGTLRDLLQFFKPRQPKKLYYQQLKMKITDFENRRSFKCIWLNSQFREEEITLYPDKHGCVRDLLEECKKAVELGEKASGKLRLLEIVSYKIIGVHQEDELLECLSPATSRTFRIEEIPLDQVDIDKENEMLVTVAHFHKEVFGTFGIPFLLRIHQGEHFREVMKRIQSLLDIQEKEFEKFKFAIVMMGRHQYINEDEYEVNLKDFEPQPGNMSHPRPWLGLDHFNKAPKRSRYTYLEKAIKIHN
- Run description: USP7, Ub-PLA2 assay
- Details: Ub-PLA2 / NBD C6-HPC fluorescence, 30 minute preincubation; read-out: EC50 for inhibition of USP7
// EC50 lookup, one value per entry

Reference set (5 entries):
>>> recorded_result("COCCNC(=O)c1cc([N+](=O)[O-])c(Sc2c(Cl)cncc2Cl)s1")
"1000 to 10000 nM"
>>> recorded_result("CN1CCN(c2ccc(NC(=O)c3cc([N+](=O)[O-])c(Sc4c(Cl)cncc4Cl)s3)cc2)CC1")
"1000 to 10000 nM"
>>> recorded_result("O=C(NCc1ccccc1)c1cc([N+](=O)[O-])c(Sc2c(Cl)cncc2Cl)s1")
"1000 to 10000 nM"
>>> recorded_result("Cc1csc(NC(=O)c2cc([N+](=O)[O-])c(Sc3c(Cl)cncc3Cl)s2)n1")
"1000 to 10000 nM"
>>> recorded_result("CC(N)c1cc([N+](=O)[O-])c(Sc2ccc(Cl)cc2Cl)s1 (stereo not drawn)")
"> 10000 nM"

What value of EC50 has been recorded for this entry: COc1cc(NC(=O)c2cc([N+](=O)[O-])c(Sc3c(Cl)cncc3Cl)s2)ccc1OCCCN(C)C
≤ 1000 nM

What value of EC50 has been recorded for this entry: N=C(N)Nc1ccc(NC(=O)c2cc([N+](=O)[O-])c(Sc3c(Cl)cncc3Cl)s2)cc1
≤ 1000 nM

What value of EC50 has been recorded for this entry: O=C(NCc1cccc(F)c1)c1cc([N+](=O)[O-])c(Sc2c(Cl)cncc2Cl)s1
≤ 1000 nM

###

- System: CAKI-1
Measured attribute: GI50 (nM)
Record the value in nM, omitting the unit from your answer.

>>> recorded_result("CS(=O)(=O)c1cc([N+](=O)[O-])c(Sc2c(Cl)cncc2Cl)s1")
1820
>>> recorded_result("CC(=O)c1cc([N+](=O)[O-])c(Sc2cccc(Cl)c2Cl)s1")
2170
>>> recorded_result("CS(=O)(=O)c1cc([N+](=O)[O-])c(Sc2ccc(Cl)cc2Cl)s1")
2240
>>> recorded_result("CC(=O)c1cc([N+](=O)[O-])c(Sc2c(Cl)cncc2Cl)s1")
1860

Would you kindly look at the next entry?
What value of GI50 has been recorded for this entry: CC(=O)c1cc([N+](=O)[O-])c(Sc2ccc(F)cc2F)s1
1820
